Source listed as the supplement of paper PMC9763283.

# Test system: SKBR3-P
# test_description: area under growth-rate inhibition curve (AUC GRI) (dimensionless (GR-based AUC)); higher = less growth inhibition
# details: exposure time: 72 h; concentrations: 0.1, 1, 10 uM
// reported area under growth-rate inhibition curve for each item listed
API doc: respond with a numeric literal and nothing else, no unit.

The cases that follow already have their area under growth-rate inhibition curve on record.
CC(=O)O[C@]1(C(C)=O)CC[C@H]2[C@@H]3C=C(C)C4=CC(=O)CC[C@]4(C)[C@H]3CC[C@@]21C [Megestrol Acetate]	0.968
CCCCN1CCCCC1C(=O)[NH2+]c1c(C)cccc1C.[Cl-] (stereo unspecified) [Bupivacaine HCl]	1.06
CS(=O)(=O)O.Cc1ccc(N(CC2=NCCN2)c2cccc(O)c2)cc1 [Phentolamine Mesylate]	0.983

Prompt line: Which measured area under growth-rate inhibition curve belongs to "Cc1nc(C#Cc2ccnc(Cl)c2)c(C)n1-c1ccc(OC(F)(F)F)cc1" , tested on SKBR3-P?
Response line: 1

Prompt line: Notebook entry, SKBR3-P assay: area under growth-rate inhibition curve of "Oc1ccc2ccc(OCCCCN3CCN(c4cccc5sccc45)CC3)cc2n1" = ?
Response line: 1.03

Prompt line: # get_value(readout= area under growth-rate inhibition curve, system= SKBR3-P) for "COc1ccc(C(Cl)=C(c2ccc(OC)cc2)c2ccc(OC)cc2)cc1"
Response line: 0.987

====

# System: SKBR3-P
# test_description: area under growth-rate inhibition curve (AUC GRI) (dimensionless (GR-based AUC)); higher = less growth inhibition
# details: exposure time: 72 h; concentrations: 0.1, 1, 10 uM
measured_endpoint: area under growth-rate inhibition curve

Known area under growth-rate inhibition curve results, listed for orientation:
CNCC(O)c1ccc(O)cc1.Cl (stereo not given) [Synephrine HCl]	1.01
C[N+]1(C)[C@@H]2CC(OC(=O)C(O)(c3cccs3)c3cccs3)C[C@H]1C1OC12.O.[Br-] (stereo not given in full) [Tiotropium Bromide hydrate]	1.02
CC(=O)CCCCn1c(=O)c2c(ncn2C)n(C)c1=O	1.02
CCCCCCCCOc1ccccc1C(=O)Nc1ccc(C(=O)OCC[N+](C)(CC)CC)cc1.[Br-] [Otilonium Bromide]	1

Now for the compound whose area under growth-rate inhibition curve we want.
Prompt line: Identify the measured area under growth-rate inhibition curve of Cl.Cl.NCCc1cnc[nH]1 [Histamine 2HCl] for SKBR3-P.
Response line: 1.01
